Readings of percentage damage caused to the plant, POST Application IPOHE for the listed compounds
Tested on: Ipomoea hederacea (IPOHE)
Assay: Post-emergence glasshouse herbicide test
Format: in vivo
Conditions: post-emergence (sprayed after 8 days cultivation), 1000 g/h, evaluated after 13 days, five point scale
MEASURE NAME: percentage damage caused to the plant, POST Application IPOHE

• O=c1c(O)c(Cl)cnn1-c1ccc(Cl)cc1Cl = 5 (5=80-100%)
• Cc1nc(C(F)(F)F)ccc1-n1ncc(Br)c(O)c1=O = 5 (5=80-100%)
• C=Cc1cnn(-c2ccc(C(F)(F)F)nc2C)c(=O)c1O = 5 (5=80-100%)
• O=c1c(O)c(Cl)cnn1-c1ccc(C(F)(F)F)cc1Cl = 5 (5=80-100%)
• Cc1c(-n2ncc(Cl)c(O)c2=O)ccc(S(C)(=O)=O)c1C1=NOCC1 = 5 (5=80-100%)
• C=Cc1cnn(-c2ccc(C(F)(F)F)cc2S(C)(=O)=O)c(=O)c1O = 5 (5=80-100%)
• CS(=O)(=O)c1ccc(-n2ncc(Cl)c(O)c2=O)c(Cl)c1C1=NOCC1 = 5 (5=80-100%)
• CS(=O)(=O)c1cc(C(F)(F)F)ccc1-n1ncc(Cl)c(O)c1=O = 5 (5=80-100%)
• Cc1c(-n2ncc(S(C)(=O)=O)c(O)c2=O)ccc(S(C)(=O)=O)c1C1=NOCC1 = 5 (5=80-100%)
• Cc1nc(C(F)(F)F)ccc1-n1ncc([S+](C)[O-])c(O)c1=O (stereo not shown) = 3 (3=40-59%)
• Cc1cnn(-c2ccc(C(F)(F)F)nc2C)c(=O)c1O = 5 (5=80-100%)
• Cc1cnn(-c2ccc(S(C)(=O)=O)c(C3=NOCC3)c2C)c(=O)c1O = 5 (5=80-100%)
• Cc1c(-n2ncc(C(C)C)c(O)c2=O)ccc(S(C)(=O)=O)c1C1=NOCC1 = 5 (5=80-100%)
• CC(=O)NC(C)(C)Cc1cnn(-c2ccc(C(F)(F)F)cc2S(C)(=O)=O)c(=O)c1O = 4 (4=60-79%)
• CS(=O)(=O)c1cc(Cl)ccc1-n1ncc(S(C)(=O)=O)c(O)c1=O = 2 (2=20-39%)
• C=C(C)c1cnn(-c2ccc(C(F)(F)F)nc2C)c(=O)c1O = 5 (5=80-100%)
• CCc1cnn(-c2ccc(C(F)(F)F)nc2C)c(=O)c1O = 4 (4=60-79%)
• CCc1cnn(-c2ccc(S(C)(=O)=O)c(C3=NOCC3)c2C)c(=O)c1O = 5 (5=80-100%)
• Cc1c(-n2ncc(C#N)c(O)c2=O)ccc(S(C)(=O)=O)c1C1=NOCC1 [Compound 1.009] = 5 (5=80-100%)
• CSc1cnn(-c2ccc(C(F)(F)F)nc2C)c(=O)c1O = 5 (5=80-100%)
• Cc1nc(C(F)(F)F)ccc1-n1ncc(Cl)c(O)c1=O = 5 (5=80-100%)
• CSc1cnn(-c2ccc(S(C)(=O)=O)c(C3=NOCC3)c2C)c(=O)c1O = 5 (5=80-100%)
• CCc1ccc(-n2ncc(CC)c(O)c2=O)c(S(C)(=O)=O)c1 = 5 (5=80-100%)
• CSc1cnn(-c2ccc(Cl)cc2S(C)(=O)=O)c(=O)c1O = 3 (3=40-59%)
• CSc1cnn(-c2ccc(C(F)(F)F)cc2S(C)(=O)=O)c(=O)c1O = 4 (4=60-79%)
• C=C(C)c1cnn(-c2ccc(S(C)(=O)=O)c(C3=NOCC3)c2C)c(=O)c1O = 5 (5=80-100%)
• CCc1cnn(-c2ccc(C(F)(F)F)nc2S(C)(=O)=O)c(=O)c1O = 5 (5=80-100%)
• Cc1c(-n2ncc(C#N)c(O)c2=O)ccc(S(C)(=O)=O)c1C1=NOCC1 [Compound 1.026] = 5 (5=80-100%)

====

Tested on: Ipomoea hederacea (IPOHE)
Test: Pre-emergence glasshouse herbicide test
Type: in vivo
Details: pre-emergence (sprayed after one day cultivation), 1000 g/h, evaluated after 13 days, five point scale
MEASURE NAME: percentage damage caused to the plant, PRE Application IPOHE

• Cc1nc(C(F)(F)F)ccc1-n1nccc(O)c1=O.O=C(O)C(F)(F)F [Compound 1.027] = 5 (5=80-100%)
• CS(=O)(=O)c1cc(Cl)ccc1-n1ncc(S(C)(=O)=O)c(O)c1=O [Compound 1.047] = 2 (2=20-39%)
• CC(=O)NC(C)(C)Cc1cnn(-c2ccc(C(F)(F)F)cc2S(C)(=O)=O)c(=O)c1O [Compound 1.044] = 4 (4=60-79%)
• Cc1cnn(-c2ccc(C(F)(F)F)nc2C)c(=O)c1O [Compound 1.020] = 5 (5=80-100%)
• CS(=O)(=O)c1ccc(-n2ncc(Cl)c(O)c2=O)c(Cl)c1C1=NOCC1 [Compound 1.017] = 5 (5=80-100%)
